# Test system: GISTT1
# Method description: Antiproliferative activity against human GISTT1 cells harboring heterozygous V560-Y578 del mutation assessed as reduction in cell viability by methylene blue staining based assay
# Format: functional
The entries below are paired with their reported GI50.

{"columns": ["Molecule", "GI50 / nM"],
 "data": [
  ["CCc1cc(NC(=O)Nc2ccc(-c3cnc(Nc4cc(N5CCC(N)C5)nc(C)n4)s3)cc2)no1 (stereo unspecified)", 6.4],
  ["CCN1CCN(c2cc(Nc3ncc(-c4ccc(NC(C)=O)cc4)s3)ncn2)CC1", 25],
  ["CCc1cc(NC(=O)Nc2ccc(-c3cnc(Nc4cc(N5CCN(CC)CC5)nc(C)n4)s3)cc2)no1", 3.2],
  ["CCc1cc(NC(=O)Nc2ccc(-c3cnc(Nc4cc(N5CCN(CC)CC5)ncn4)s3)cn2)no1", 1],
  ["CCc1cc(NC(=O)N2CC=C(c3cnc(Nc4cc(N5CCN(CC)CC5)nc(C)n4)s3)CC2)no1", 4.9],
  ["CCc1cc(NC(=O)Nc2ccc(-c3sc(Nc4cc(N5CCN(CC)CC5)ncn4)nc3C)cc2)no1", 3.3],
  ["CCN1CCN(c2cc(Nc3ncc(-c4ccc(NS(=O)(=O)c5ccccc5)cc4)s3)nc(C)n2)CC1", 42],
  ["Cc1nc(Nc2ncc(-c3ccc(NC(=O)Nc4ccccc4)cc3)s2)cc(N2CCN(C)CC2)n1", 5.4],
  ["CCc1cc(NC(=O)NCC#Cc2cnc(Nc3cc(N4CCN(CC)CC4)ncn3)s2)no1", 9.9],
  ["CCc1cc(NC(=O)NCCCc2cnc(Nc3cc(N4CCN(CC)CC4)nc(C)n3)s2)no1", 10],
  ["CCN(CC)CCNC(=O)c1c(C)[nH]c(/C=C2\\C(=O)Nc3ccc(F)cc32)c1C", 38]
]}

---

# Target or system: Mast/stem cell growth factor receptor Kit (Homo sapiens, UniProt P10721)
# Method description: Inhibition of recombinant human N-terminal 6x-His-tagged c-KIT (547 to 935 residues)/(694 to 753 residues deletion) expressed in baculovirus infected Sf9 insect cells assessed as decrease in poly (Glu,Tyr) 4:1 phosphorylation measured after 150 mins in presence of ATP by ADP-glo based luminescence assay

{"columns": ["Compound", "Unit label", "IC50"],
 "data": [
  ["CCc1cc(NC(=O)Nc2ccc(-c3cnc(Nc4cc(N5CCN(CC)CC5)nc(C)n4)s3)cc2)no1", "nM", 97],
  ["CCc1cc(NC(=O)Nc2ccc(-c3sc(Nc4cc(N5CCN(CC)CC5)ncn4)nc3C)cc2)no1", "nM", 122],
  ["CCc1cc(NC(=O)Nc2ccc(-c3cnc(Nc4nc(C)nc(N5CCN(CC)CC5)n4)s3)cc2)no1", "nM", 86],
  ["CCc1cc(NC(=O)Nc2ccc(-c3csc(Nc4cc(N5CCN(CC)CC5)nc(C)n4)n3)cc2)no1", "nM", 950],
  ["Cc1nc(Nc2ncc(-c3ccc(NC(=O)Nc4ccccc4)cc3)s2)cc(N2CCN(C)CC2)n1", "nM", 20],
  ["CCc1cc(NC(=O)Nc2ccc(-c3cnc(Nc4cc(N5CCC(N)C5)nc(C)n4)s3)cc2)no1 (centres undefined)", "nM", 15],
  ["CCc1cc(NC(=O)NCC#Cc2cnc(Nc3cc(N4CCN(CC)CC4)ncn3)s2)no1", "nM", 38],
  ["CCc1cc(NC(=O)Nc2ccc(-c3cnc(Nc4cc(N5CCN(CC)CC5)ncn4)s3)cc2)no1", "nM", 82],
  ["CCN1CCN(c2cc(Nc3ncc(-c4ccc(NC(C)=O)cc4)s3)ncn2)CC1", "nM", 130]
]}

---

# Method description: Cmax in ICR mouse at 10 mg/kg, po administered as single dose measured up to 24 hrs by LC-MS/MS analysis
# Format: ADME, organism-based
# Design: dose 10 mg/kg, route oral
# Condition label: in vivo

{"columns": ["Entry smiles", "Unit label", "Cmax"],
 "data": [
  ["CCc1cc(NC(=O)Nc2ccc(-c3cnc(Nc4cc(N5CCN(CC)CC5)ncn4)s3)cc2)no1", "ng/mL", 562]
]}

---

# Target or system: Mast/stem cell growth factor receptor Kit (Homo sapiens, UniProt P10721, D820E)
# Method description: Inhibition of human c-KIT A loop exon 17 D820E single mutant using poly (Glu,Tyr) 4:1 as substrate in presence of 33P-gamma-ATP by hotspot kinase assay

{"columns": ["Entry smiles", "IC50 [nM]"],
 "data": [
  ["CCc1cc(NC(=O)Nc2ccc(-c3cnc(Nc4cc(N5CCN(CC)CC5)ncn4)s3)cc2)no1", 0.81]
]}

---

# Target or system: Mast/stem cell growth factor receptor Kit (Homo sapiens, UniProt P10721, D816H)
# Sequence (P10721 26-976 D816H limits assumed): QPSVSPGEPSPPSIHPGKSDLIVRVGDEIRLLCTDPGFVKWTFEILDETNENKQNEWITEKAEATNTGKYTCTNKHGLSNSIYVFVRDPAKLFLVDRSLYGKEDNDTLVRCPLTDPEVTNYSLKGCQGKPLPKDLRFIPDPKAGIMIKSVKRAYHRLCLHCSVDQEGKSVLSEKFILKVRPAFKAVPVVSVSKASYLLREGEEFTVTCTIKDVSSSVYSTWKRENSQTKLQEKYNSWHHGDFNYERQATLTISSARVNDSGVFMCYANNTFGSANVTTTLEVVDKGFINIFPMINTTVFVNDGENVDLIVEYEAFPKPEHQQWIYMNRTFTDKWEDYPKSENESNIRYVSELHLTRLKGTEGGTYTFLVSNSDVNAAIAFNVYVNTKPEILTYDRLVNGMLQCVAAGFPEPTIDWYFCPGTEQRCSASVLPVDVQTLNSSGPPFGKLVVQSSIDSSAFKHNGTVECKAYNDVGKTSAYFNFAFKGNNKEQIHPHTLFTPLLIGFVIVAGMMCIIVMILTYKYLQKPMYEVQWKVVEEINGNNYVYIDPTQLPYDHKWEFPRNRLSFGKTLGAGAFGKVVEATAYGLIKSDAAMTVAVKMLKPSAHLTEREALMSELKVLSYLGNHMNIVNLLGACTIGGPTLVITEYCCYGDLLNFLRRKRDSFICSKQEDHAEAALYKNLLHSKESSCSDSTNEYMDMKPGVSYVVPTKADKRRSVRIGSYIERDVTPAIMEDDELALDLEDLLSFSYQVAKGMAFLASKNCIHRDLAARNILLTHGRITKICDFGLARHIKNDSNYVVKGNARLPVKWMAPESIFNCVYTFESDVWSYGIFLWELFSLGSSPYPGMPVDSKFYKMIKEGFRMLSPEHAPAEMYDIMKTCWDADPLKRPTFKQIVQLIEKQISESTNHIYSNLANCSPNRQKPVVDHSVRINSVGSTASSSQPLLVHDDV
# Method description: Inhibition of human c-KIT A loop exon 17 D816H single mutant using poly (Glu,Tyr) 4:1 as substrate in presence of 33P-gamma-ATP by hotspot kinase assay
pIC50: −log10 of the molar value.
Result type: pIC50

{"columns": ["Entry smiles", "Target or system", "Result type", "Observed value"],
 "data": [
  ["CCc1cc(NC(=O)Nc2ccc(-c3cnc(Nc4cc(N5CCN(CC)CC5)ncn4)s3)cc2)no1", "Mast/stem cell growth factor receptor Kit (Homo sapiens, UniProt P10721, D816H)", "pIC50", 9.17]
]}

---

Recorded GI50 by entry
# System: GISTT1
# Method description: Antiproliferative activity against human GISTT1 cells harboring heterozygous V560-Y578 deletion mutant assessed as reduction in cell viability by MTS assay
# Type: functional

{"columns": ["Molecule", "Target or system", "Censoring qualifier", "GI50 / nM"],
 "data": [
  ["CCc1cc(NC(=O)Nc2ccc(-c3cnc(Nc4cc(N5CCC(N)C5)nc(C)n4)s3)cc2)no1 (stereo unspecified)", "GISTT1", "=", 6.4],
  ["CCc1cc(NC(=O)NCC#Cc2cnc(Nc3cc(N4CCN(CC)CC4)ncn3)s2)no1", "GISTT1", "=", 9.9],
  ["CCN1CCN(c2cc(Nc3ncc(-c4ccc(NS(=O)(=O)c5ccccc5)cc4)s3)nc(C)n2)CC1", "GISTT1", "=", 42],
  ["Cc1nc(Nc2ncc(-c3ccc(NC(=O)Nc4ccccc4)cc3)s2)cc(N2CCN(C)CC2)n1", "GISTT1", "=", 5.4],
  ["CCc1cc(NC(=O)NCCCc2cnc(Nc3cc(N4CCN(CC)CC4)nc(C)n3)s2)no1", "GISTT1", "=", 10],
  ["CCc1cc(NC(=O)Nc2ccc(-c3cnc(Nc4cc(N5CCN(CC)CC5)nc(C)n4)s3)cc2)no1", "GISTT1", "=", 3.2],
  ["CCN1CCN(c2cc(Nc3ncc(-c4ccc(NC(C)=O)cc4)s3)ncn2)CC1", "GISTT1", "=", 25],
  ["CCc1cc(NC(=O)N2CC=C(c3cnc(Nc4cc(N5CCN(CC)CC5)nc(C)n4)s3)CC2)no1", "GISTT1", "=", 4.9],
  ["CCN(CC)CCNC(=O)c1c(C)[nH]c(/C=C2\\C(=O)Nc3ccc(F)cc32)c1C", "GISTT1", "=", 38],
  ["CCc1cc(NC(=O)Nc2ccc(-c3cnc(Nc4nc(C)nc(N5CCN(CC)CC5)n4)s3)cc2)no1", "GISTT1", "=", 13],
  ["CCc1cc(NC(=O)Nc2ccc(-c3cnc(Nc4cc(N5CCN(CCO)CC5)ncn4)s3)cc2)no1", "GISTT1", "=", 3.3],
  ["CCc1cc(NC(=O)Nc2ccc(-c3sc(Nc4cc(N5CCN(CC)CC5)ncn4)nc3C)cc2)no1", "GISTT1", "=", 3.3],
  ["CCc1cc(NC(=O)Nc2ccc(-c3csc(Nc4cc(N5CCN(CC)CC5)nc(C)n4)n3)cc2)no1", "GISTT1", ">", 1000],
  ["CCN1CCN(c2cc(Nc3ncc(-c4ccc(NC(N)=O)cc4)s3)ncn2)CC1", "GISTT1", "=", 86],
  ["CCc1cc(NC(=O)Nc2ccc(-c3cnc(Nc4cc(N5CCN(CC)CC5)ncn4)s3)cc2)no1", "GISTT1", "=", 2.2],
  ["CCc1cc(NC(=O)Nc2ccc(-c3cnc(Nc4cc(N5CCN(CC)CC5)ncn4)s3)cn2)no1", "GISTT1", "=", 1]
]}

---

# Method description: Half life in ICR mouse at 10 mg/kg, po administered as single dose measured up to 24 hrs by LC-MS/MS analysis
# Type: ADME, organism-based
# Condition label: in vivo

{"columns": ["Entry smiles", "Unit label", "half-life"],
 "data": [
  ["CCc1cc(NC(=O)Nc2ccc(-c3cnc(Nc4cc(N5CCN(CC)CC5)ncn4)s3)cc2)no1", "h", 2.8]
]}

These entries and their values trace back to ChEMBL document CHEMBL4385613.
